# Protocol text: Time-Resolved Fluorescence Resonance Energy Transfer (TR-FRET) Assay: The human kinase Mps-1 phosphorylates a biotinylated substrate peptide. Detection of the phosphorylated product is achieved by time-resolved fluorescence resonance energy transfer (TR-FRET) from Europium-labelled anti-phospho-Serine/Threonine antibody as donor to streptavidin labelled with cross-linked allophycocyanin (SA-XLent) as acceptor. Compounds are tested for their inhibition of the kinase activity.N-terminally GST-tagged human full length recombinant Mps-1 kinase (purchased from Invitrogen, Karslruhe, Germany, cat. no PV4071) was used. […] The concentration of Mps-1 in the assay was adjusted to the activity of the enzyme lot and was chosen appropriate to have the assay in the linear range, typical enzyme concentrations were in the range of about 1 nM (final conc. in the 5 ul assay volume).
Reported property: IC50 (pM)

Use the examples below as a reference point.
| Compound | Value units | IC50 |
| --- | --- | --- |
| Cc1cc(-c2cnc3c(NCCC(F)(F)F)cc(C(C)(O)c4cccc(F)c4O)nn23)ccc1C(=O)NC1CC1 (stereo not drawn) | pM | 300 |
| Cc1cc(-c2cnc3c(NCCC(F)(F)F)cc(C(O)c4cc(F)ccc4F)nn23)ccc1C(=O)NC1CC1 (stereo not drawn) | pM | 300 |

I. Cc1cc(-c2cnc3c(NCCC(F)(F)F)cc(C(F)(F)c4cc(F)ccc4F)nn23)ccc1C(=O)NC1CC1
II. Cc1cc(-c2cnc3c(NCCC(F)(F)F)cc(C4(c5cc(F)ccc5F)CC4)nn23)ccc1C(=O)NC1CC1
Query: // select label with min value of measured IC50 from [ I , II ] Please indicate the selected item by its label.
Result: I
(I: 500 pM, II: 800 pM)

====

# Protocol text: Time-Resolved Fluorescence Resonance Energy Transfer (TR-FRET) Assay: The human kinase Mps-1 phosphorylates a biotinylated substrate peptide. Detection of the phosphorylated product is achieved by time-resolved fluorescence resonance energy transfer (TR-FRET) from Europium-labelled anti-phospho-Serine/Threonine antibody as donor to streptavidin labelled with cross-linked allophycocyanin (SA-XLent) as acceptor. Compounds are tested for their inhibition of the kinase activity.N-terminally GST-tagged human full length recombinant Mps-1 kinase (purchased from Invitrogen, Karslruhe, Germany, cat. no PV4071) was used. […] The concentration of Mps-1 in the assay was adjusted to the activity of the enzyme lot and was chosen appropriate to have the assay in the linear range, typical enzyme concentrations were in the range of about 1 nM (final conc. in the 5 ul assay volume).
Reported property: IC50 (nM)

Some solved cases for reference:
| Compound | Readout value |
| --- | --- |
| Cc1cc(-c2cnc3c(NCCC(F)(F)F)cc(C(=O)c4cc(F)ccc4F)nn23)ccc1C(=O)NC1CC1 | 0.6 |
| Cc1cc(-c2cnc3c(NCCC(F)(F)F)cc(C(F)c4cccc(F)c4)nn23)ccc1C(=O)NC1CC1 (centres undefined) | 0.7 |

a. Cc1cc(-c2cnc3c(NCCC(F)(F)F)cc(C(=O)c4cccc(F)c4F)nn23)ccc1C(=O)NC1CC1
b. C=C(c1cc(NCCC(F)(F)F)c2ncc(-c3ccc(C(=O)NC4CC4)c(C)c3)n2n1)c1cccc(F)c1F
Query: I need your help: which of the pair a , b has higher IC50? Refer to your chosen entry by its label in the reply.
Result: a

Values were extracted from ChEMBL document CHEMBL5725270.
